Target: biotinylated CD59 (Homo sapiens)
Construct: Recombinant soluble human CD59 with an additional C-terminal cysteine residue
Sequence (P13987 26-102 limits assumed): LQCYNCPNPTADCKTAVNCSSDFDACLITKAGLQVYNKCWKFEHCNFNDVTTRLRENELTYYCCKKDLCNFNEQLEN
Assay: mRNA-display cyclic peptide screen against CD59-biotin, NGS abundance after 6th selection round
Details: counts normalised by total counts of NGS sample Seq I, sheet R6
Below, each entry is listed with its recorded Percentage of the pool, Seq I.

SEQUENCE RECORD	MEASURE UNIT	Percentage of the pool, Seq I
SACGNRQIQYY	%	0.012
HAFGNRSFTRG	%	0.019
HVFGNRSFARG	%	0.018
WIRGNRDESLG	%	0.011
IARGGRHFSSG	%	0.011
VVHGGKDYQWS	%	0.015
FVTSNRDHTRG	%	0.005
CSRLTSRGWT	%	0.014
YVYGSRDRC	%	0.017
HVYGNRSFTRG	%	0.022
NYVERLCTSG	%	0.016
SWTWGNRSSVSG	%	0.017
CFVSRTQIGSV	%	0.019
CFAGRLAIDAV	%	0.012
RCWASGSRDWR	%	0.022
CFSPRVTEHST	%	0.014
WRDRFGQCVL	%	0.006
CFRSRAVSNGT	%	0.013
FVRGDLYSVLS	%	0.010
CFSHRNPTDSI	%	0.007
